- System: ABL1(T315I)-nonphosphorylated
- setupConditions: Compound Concentration (nM):1000;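 further: KINOMEscan scanMAX binding as percent activity remaining versus control; lower means stronger binding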
Returns one of MET or NOT MET; MET when Percent Control is >= 60%.

In [3]: df
Out[3]:
                                   compound  classname
0  COc1cccc(-c2c[nH]c3c(N/N=C/c4ccncc4)ncnc23)c1 [GW814408X]    NOT MET
1  CN1CCN(C(=O)c2ccc(NC(=O)Nc3ccc(N(C)c4ccnc(Nc5ccc(CS(C)(=O)=O)cc5)n4)cc3)cc2)CC1.Cl [GW830263A]    NOT MET
2  NS(=O)(=O)c1ccc(N/N=C2\C(=O)Nc3ccc(Cl)cc32)cc1 [GW280670X]        MET
3  COc1cc(C=NNc2ncnc3c2cnn3-c2ccccc2)ccc1O [GW513184X]    NOT MET
4  NS(=O)(=O)c1ccc(N/N=C2\C(=O)Nc3ccc(C(=O)NCc4ccncc4)cc32)cc1 [GW300657X]        MET
5  Cc1cc(O)cc(C)c1/C=C/c1cncc(C(N)=O)c1 [GW435821X]        MET

State whether the measured Percent Control reaches 60%, counting equality as reaching it, for COc1cc(C)c(N(C)C(=O)CN(C)C)cc1Nc1nc(Nc2cccc(F)c2C(N)=O)c2cc[nH]c2n1 [GSK2219385]
MET

Could you tell me if the measured Percent Control of O=C1Nc2ccc(C(=O)c3ccco3)cc2C1=Cc1cc(Cl)c(O)c(Cl)c1 [GW406108X] reaches 60% or more?
MET

Please tell me: is the compound NS(=O)(=O)c1ccc(Nc2ncc(-c3ccccc3)o2)cc1 [GW572399X] at or over 60% in terms of Percent Control?
MET

----------
Documented Percent Control across a set of molecules
- System: CSNK1G1
- setupConditions: Compound Concentration (nM):1000
Please respond with the number in % and leave the unit unwritten.

Examples with their reported Percent Control follow.
>>> df
                                   molecule  valueobserved
0  Cl.O=S1CCN(Cc2ccc(-c3ccc4ncnc(Nc5ccc(OCc6ccccc6)c(F)c5)c4c3)o2)CC1 [GW576924A]            100
1  C[C@@H](Oc1cc(-n2cnc3ccc(OC4CCN(C)CC4)cc32)sc1C(N)=O)c1ccccc1Cl [GSK579289A]             83

// field: Percent Control; key: CC(C)COC(=O)c1ccc2c(c1)/C(=C/Nc1ccc(S(N)(=O)=O)cc1)C(=O)N2 [GW416981X] ; value = 96

----------
Entries and their Percent Control values follow.
- Test system: BMPR1A
- setupConditions: Compound Concentration (nM):1000
Only the number, expressed in %, is required.

                                   molecule  assayedsystem          readout  valueobserved
0  COc1ccc2cc(-c3c(-c4ccncc4)nc(-c4ccc(S(C)(=O)=O)cc4C)n3C)ccc2c1         BMPR1A  Percent Control             79
1  O=C(Nc1n[nH]c2nc(-c3ccc(O)cc3)c(Br)cc12)C1CC1         BMPR1A  Percent Control             98
2  NS(=O)(=O)c1ccc(Nc2ncc(-c3ccccc3)o2)cc1 [GW572399X]         BMPR1A  Percent Control            100
3  COc1cc(/C=N/Nc2ncnc3[nH]ncc23)ccc1O [GW578748X]         BMPR1A  Percent Control            100

Please find the next molecule below.
Hey, BMPR1A data for Cl.O=C(Nc1ccc(Oc2ccc3[nH]c(NC(=O)c4ccccc4)nc3c2)cc1)Nc1cc(C(F)(F)F)ccc1F [GW709042A] : Percent Control came out at 98

----------
Here, each record is paired with measured Percent Control data.
- System: PKNB(M.tuberculosis)
- setupConditions: 1 µM
Just the number plus its unit, please.

>>> print(df.to_string())
                                   compound         assayedsystem  valueobserved
0  O=C1Nc2ccc(C(=O)c3ccco3)cc2C1=Cc1cc(Cl)c(O)c(Cl)c1 [GW406108X]  PKNB(M.tuberculosis)            90%
1  CCS(=O)(=O)c1ccc(OC)c(Nc2ncc(-c3cccc(OC)c3)o2)c1 [GW580509X]  PKNB(M.tuberculosis)           100%
2  CN(C)CCNC(=O)Nc1ccc(N(C)c2ccnc(Nc3ccc(CS(C)(=O)=O)cc3)n2)cc1.Cl [GW830900A]  PKNB(M.tuberculosis)            94%

Now for the compound whose Percent Control we want.
Measured Percent Control for this entry CN(C)c1cc2c(Nc3ccc4c(cnn4Cc4ccccc4)c3)ncnc2cn1 [GW282974X] on PKNB(M.tuberculosis): 68%

----------
- System: FLT3(R834Q)
- setupConditions: Compound Concentration (nM):1000
# Percent Control listing for each entry below
Give just the number in %; leave the unit off.

Measured Percent Control for this entry NS(=O)(=O)c1ccc(N/N=C2\C(=O)Nc3ccc(Cl)cc32)cc1 [GW280670X] on FLT3(R834Q): 68

# Percent Control measured on FLT3(R834Q) for item CN(C)c1cc2c(Nc3ccc4c(cnn4Cc4ccccc4)c3)ncnc2cn1 [GW282974X] = 95

Note to self: Percent Control of COc1cc(N2CCN(C(C)C)CC2)ccc1Nc1nc(Nc2ccc(F)cc2C(=O)NC[C@@H](O)CO)c2cc[nH]c2n1 [GSK1392956A] with FLT3(R834Q) was 100

----------
- Test system: IRAK4
- setupConditions: Compound Concentration (nM):1000
Below: a set of entries, each annotated with reported Percent Control.
The response must be a number in % with no trailing unit.

Check out these entries, answers already filled in.
In [3]: df
Out[3]:
                                   molecule  valueobserved
0  NS(=O)(=O)c1ccc(N/N=C2\C(=O)Nc3ccc(-c4cnco4)cc32)cc1 [GW276655]             90
1  CCn1c(-c2nonc2N)nc2c(C#CC(C)(C)O)nc(OCCNC)cc21.Cl [GSK949675]             88

Please find the next molecule below.
For Cl.O=C(O[C@H]1CN[C@H](C#Cc2cc3ncnc(Nc4ccc5c(cnn5Cc5ccccc5)c4)c3s2)C1)N1CCOCC1 [GSK200398A] the molecule record lists Percent Control as 96

----------
- Test system: GRK4
- setupConditions: Compound Concentration (nM):1000
Recorded Percent Control values for a group of compounds are listed next.
Give your result in % as a bare value.

Solved cases (4 shown):
>>> print(df.to_string())
                                   compound  assayedsystem  valueobserved
0  CCc1ccc(Oc2nccc(-c3c(-c4ccc(F)cc4)ncn3C3CCNCC3)n2)cc1           GRK4            100
1  CCS(=O)(=O)c1ccc(OC)c(Nc2ncc(-c3cccc(F)c3)o2)c1 [GW621970X]           GRK4            100
2  COc1cc(C=NNc2ncnc3c2cnn3-c2ccccc2)ccc1O [GW513184X]           GRK4             28
3  CC1=C(C(=O)Nc2ccc3[nH]ncc3c2)C(c2ccc(Cl)c(Cl)c2)CC(=O)N1 (centres unmarked) [GSK299115A]           GRK4            100

Okay, next one:
Observed Percent Control, GRK4, Cl.O=C(Nc1ccc(Oc2ccc3[nH]c(NC(=O)c4ccco4)nc3c2)cc1)Nc1cc(C(F)(F)F)ccc1F [GW683134A] : 100

----------
Percent Control: recorded values
- Test system: ABL1(E255K)-phosphorylated
- setupConditions: Compound Concentration (nM):1000
Field format: number, assumed %, no unit text.

Use the examples below as a reference point.
                                   compound  valueobserved
0  Cc1cc(O)cc(C)c1/C=C/c1cncc(C(N)=O)c1 [GW435821X]            6.8
1  Cl.O=S1CCN(Cc2ccc(-c3ccc4ncnc(Nc5ccc(OCc6ccccc6)c(F)c5)c4c3)o2)CC1 [GW576924A]            100
2  NS(=O)(=O)c1ccc(Nc2ncc(-c3ccccc3)o2)cc1 [GW572399X]             81
3  COc1cc2ncnc(Nc3ccc4c(cnn4Cc4ccccc4)c3)c2cc1OC.Cl [GW282449A]            100

From here, focus on the item given below.
What the record says about CC1=C(C(=O)Nc2ccc3[nH]ncc3c2)C(c2ccc(Cl)c(Cl)c2)CC(=O)N1 (centres unmarked) [GSK299115A] : Percent Control is 96

----------
- Tested on: ERBB4
- setupConditions: Compound Concentration (nM):1000
readout: Percent Control (%)
Numeric answer only, unit % assumed.

                                   compound  valueobserved
0  NS(=O)(=O)c1ccc(N/N=C2\C(=O)Nc3ccc(C(=O)NCCc4c[nH]cn4)cc32)cc1 [GW300660X]            100
1  NS(=O)(=O)c1ccc(N/N=C2\C(=O)Nc3ccc(C(=O)NCc4ccncc4)cc32)cc1 [GW300657X]             93
2  COc1cc(C=NNc2ncnc3c2cnn3-c2ccccc2)ccc1O [GW513184X]            100

Alright, here's another compound for you.
Lookup result for CN1CCN(C(=O)c2ccc(NC(=O)Nc3ccc(N(C)c4ccnc(Nc5ccc(CS(C)(=O)=O)cc5)n4)cc3)cc2)CC1.Cl [GW830263A] ; measured Percent Control: 77
